Test system: MCF7 breast
Assay: NCI tumour cell line growth inhibition, 48 h; in the data active = GI50 below about 0.43 µM; inactive = the rest
Labels: active, inactive

Smiles Record	Class Name
CN(Cc1ccccc1)c1ncnc2ccc(Br)cc12	inactive
Cc1ccccc1NC(=O)N/C(N)=N/c1nc(C)c(C)s1	active
COc1ccc2c(c1)C(=O)c1c-2n(CCCCl)c(=O)c2cc([N+](=O)[O-])ccc12	active
Cc1ccc(C(=O)Nc2ccc(CN3CCN(C)CC3)c(C(F)(F)F)c2)cc1C#Cc1cnc(N)c2ccc(C#N)cc12	inactive
Cc1cc(NCCCNc2ccnc3cc(Cl)ccc23)nc(Nc2ccc(C(=O)N3CCCCC3)cc2)n1	inactive
O=c1ncc(I)c[nH]1	inactive
O=C1C2=C(C(=O)c3c(O)ccc(O)c31)N(c1cccnc1)Cc1ccccc1O2	active
CC(C)C[C@H](NC(=O)[C@H](Cc1ccccc1)NC(=O)c1cnccn1)B(O)O	active
O=C1c2cccc3c([N+](=O)[O-])ccc(c23)C(=O)N1CCCCl	inactive
COc1ccc2c(c1)O/C(=C\c1ccc([N+](=O)[O-])o1)C2=O	active
COc1ccc(-c2cnc(SCC(=O)c3c(C)n(C)n(-c4ccccc4)c3=O)n2-c2ccc(OC)cc2)cc1	inactive
C=C(C)[C@@H]1CC[C@]2(C(=O)N3CCN(C)CC3)CC[C@]3(C)[C@H](CC[C@@H]4[C@@]5(C)C/C(=C/c6ccncc6)[C@H](O)C(C)(C)[C@@H]5CC[C@]43C)[C@@H]12	inactive
N=C(N)c1ccc(CS(=O)(=O)F)cc1	inactive

====

Test system: LXFL 529 NSCLC
Assay: NCI tumour cell line growth inhibition, 48 h
Listed next: entries and their corresponding TGI.
Value Kind: TGI

Molecule	Result Value
C/C(=N\NC(=O)C[n+]1ccccc1)c1sc(-c2nc(C)c(/C(C)=N/NC(=O)C[n+]3ccccc3)s2)nc1C	> 100 µM
CCCCCCCCCCCCCCCCSS(C)(=O)=O	26.3 µM
OCC(O)C(O)C(O)c1nn[nH]n1 (stereo not drawn)	> 100 µM
CC(=O)CC(=O)ON(C)C(C)=O	> 100 µM
CC1(C)CCc2cc3c(cc2O1)OC(C)(C)CC3=O	> 100 µM
CC(C)(c1ccccc1)c1ccc(Oc2ccc3c(c2)-c2nc-3nc3[nH]c(nc4nc(nc5[nH]c(n2)c2ccc(Oc6ccc(C(C)(C)c7ccccc7)cc6)cc52)-c2cc(Oc5ccc(C(C)(C)c6ccccc6)cc5)ccc2-4)c2ccc(Oc4ccc(C(C)(C)c5ccccc5)cc4)cc32)cc1	> 100 µM
CC(/C=C/C=C\C=C\C=C(/C)C(=O)NC(C)CO)=C\C(C)C(O)/C(C)=C/C(C)CCc1ccccc1 (stereo not drawn)	18.7 µM
CN(C)CCNC(=O)c1ccccc1Nc1c(Cl)cccc1Cl	32.4 µM

====

Tested on: XF 498 CNS
Assay: NCI tumour cell line growth inhibition, 48 h
molecules and their reported TGI
Value Kind: TGI (µM)

Molecule	Readout Relation	Result Value
CC1(OCc2ccccc2)C(=O)N2C1N(C(=O)OCc1ccccc1)CC2(C)C (configuration not stated)	=	75
CC(/C=C/c1ccccc1)=N\N=C(C)\C=C\c1ccccc1	>	100
COC(=O)CCC(=O)Nc1cccc(C(F)(F)F)c1	>	100
CC1(C)CCc2cc3c(cc2O1)OC(C)(C)CC3=O	>	100
CC(C)(C)c1cc(O)c2c(c1O)C(=O)CCC2	=	71.2
C[C@]12CC[C@H](OC(=O)Cc3ccc(N(CCCl)CCCl)cc3)CC1CC[C@@H]1C2CC[C@]2(C)NC(=O)CCC12 (some centres not stated)	=	28.3
NC(CCCNc1ccc(O)cc1)C(=O)O (configuration not stated)	=	38.2

====

Test system: SK-MEL-5 melanoma
Assay: NCI tumour cell line growth inhibition, 48 h
Value Kind: TGI

Compound	Result Value
CC(=O)N(C(=O)CC(=O)NNCc1ccccc1Cl)c1ccc(Cl)cc1	> 10 µM
O=S1(=O)OCc2ccccc21	> 100 µM
CCOC(=O)C1C(c2ccco2)C2(C#N)C(=N)OC1(C)C2(C#N)C#N (stereo unspecified)	> 100 µM
CCOc1ccc(NC(=O)/C(Cc2nc3ccccc3[nH]c2=O)=N\O)cc1	> 100 µM
O=C1/C(=N/N=C(c2ccccc2)c2ccccc2)c2ccccc2-c2ccccc21	> 100 µM
O=C1CC(c2ccccc2)NCCCCN2CC(CN1)C(C(O)c1ccccc1)C2=O (stereo unspecified)	> 100 µM
O=c1ncc(I)c[nH]1	> 100 µM
CC1OC1P(=O)(O)O (stereo unspecified)	> 100 µM
O=C1C(=Cc2cccc(Cl)c2)N=C(c2ccccc2)N1n1c(-c2ccccc2)nc2ccccc2c1=O	> 100 µM
Cc1cc(N(CCC#N)CCC#N)ccc1/C=C(\NC(=O)/C=C/c1ccccc1)NC(=O)Nc1ccccc1C	> 100 µM
O=C(NCCN1CCOCC1)Nc1nc2ccc(Sc3nnc4ccc(-c5ccc(F)cc5)nn34)cc2s1	> 28.6 µM

====

System: UO-31 renal
Assay: NCI tumour cell line growth inhibition, 48 h
# TGI annotations

Compound	TGI
O=S1(=O)OCc2ccccc21	> 100 µM
CCCCN1C(=O)C2c3[nH]c4ccccc4c3C3CCCCC3C2C1=O (mixture of isomers)	47.5 µM
CC(C)(C)n1nc(C2CC2)cc1NC(=O)Nc1ccc(Cl)cc1	> 100 µM
COc1ccc2c(c1)OCC1=C2Oc2ccccc2C1	> 100 µM
COC1=CC(=O)c2c(O)c3c(c(O)c2C1=O)OC1(Oc2c(cc4cc(C)oc(=O)c4c2O)CC1O)C3O (configuration not stated)	> 100 µM
OCC(O)C(O)C(O)c1nn[nH]n1 (configuration not stated)	> 100 µM
CC(=O)Oc1c(C)cc2c(c1C)C(C)(C)CN2C(=O)C(C)(C)C	> 100 µM
COc1cc(-c2nn(-c3ccc(NC(=O)Nc4ccc(Cl)c(C(F)(F)F)c4)cc3)cc2-c2ccncc2)ccc1Cl	3.13 µM
COc1c(N2CCCCC2)c2c(=O)c3ccccc3oc2c2cc(C)oc12	54 µM
COc1ccc2c(c1)O/C(=C\c1ccc([N+](=O)[O-])o1)C2=O	4.3 µM
CCOC(=O)C1C(c2ccco2)C2(C#N)C(=N)OC1(C)C2(C#N)C#N (configuration not stated)	> 100 µM
COCn1c(=O)n(C)c(=O)c2c1nc1c(c(=O)n(C)c(=O)n1COC)[n+]2[O-]	> 100 µM
CC(C)COC(=O)N1N=NC2C3CC(=O)C(O3)C21 (configuration not stated)	> 100 µM
ClCCN(CC#CCCCC#CCN(CCCl)CCCl)CCCl	47 µM
O=C1CCN=C(NC(=O)C(F)(F)F)N1CCc1c[nH]c2ccccc12	> 100 µM
Cc1ccc([N+]2=NC(c3ccc([N+](=O)[O-])cc3)=NN(c3ccccc3)C2)cc1	> 100 µM
CC1(C)CCc2cc3c(cc2O1)OC(C)(C)CC3=O	> 100 µM
O=S(Nc1ccccc1)c1ccccc1Oc1ccccc1 (configuration not stated)	> 100 µM
COc1cccc([C@@H]2C/C(=N\NC(=O)C(=O)N[C@@H](C)c3ccccc3)c3cc4c(cc3N2)OCO4)c1	> 100 µM
CCCCCCCCCCCCCCC(C(=O)[O-])[n+]1ccccc1 (configuration not stated)	> 100 µM
OC1C2CCC3C2CC(C(O)(c2ccccc2)c2ccccc2)C13 (configuration not stated)	> 100 µM
COC(=O)c1c(O)ccc2c1c1cc3ccccc3c(O)c1n2Cc1ccccc1Cl	64.1 µM
COc1ccc(/C=C/C(=O)c2c(-c3ccccc3)nn(C)c(=O)c2N2CCCC2)cc1	> 100 µM
CC(=O)NC1C(O)C(O)C(CO)OC1n1nc(SCc2ccccc2)c(=O)[nH]c1=O (configuration not stated)	> 100 µM
COc1cc(/C=C2/CCCc3ccccc3C2=O)cc(OC)c1OC	> 60.2 µM
CCc1cc(C)cc2[n+]1CC=C2C	> 100 µM
Cc1cc(C)c(-n2c(C)c(C)c(C#N)c2N)c(C)c1	> 100 µM
O=S(=O)(Nc1nc2ccccc2nc1Nc1cccc2ccccc12)c1ccccc1	> 100 µM
COc1ccc(C(=C(C#N)C#N)c2ccc(OC)cc2)cc1	> 100 µM
CCOc1cccc2sc(N)nc12	> 100 µM
N=C(N)SC(c1ccccc1)c1ccccc1	23.2 µM
CN(C)c1ccc(/C=N/NC(=O)CSc2nc3sc4c(c3c(=O)n2-c2ccccc2)CCCCC4)cc1	> 100 µM
CC1(C)CC(=O)c2c([nH]c(=S)c(C#N)c2-c2ccc(Br)cc2)C1	> 100 µM
CCCCCCCCCCCCCCCCSS(C)(=O)=O	35.7 µM
CCOP(=O)(OCC)c1cc2cc(O)ccc2oc1=O	0.151 µM
CCCCC1CCCCCCc2[nH]c(/C=C3\N=C(c4ccc[nH]4)C=C3OC)cc21 (configuration not stated)	0.071 µM
NC(N)=NS(=O)(=O)c1ccc(NC(=O)c2cccn3c(=O)c4ccccc4nc23)cc1	> 100 µM
